target: Carbonic anhydrase 4 (Bos taurus, UniProt Q95323)
Sequence (Q95323 whole entry): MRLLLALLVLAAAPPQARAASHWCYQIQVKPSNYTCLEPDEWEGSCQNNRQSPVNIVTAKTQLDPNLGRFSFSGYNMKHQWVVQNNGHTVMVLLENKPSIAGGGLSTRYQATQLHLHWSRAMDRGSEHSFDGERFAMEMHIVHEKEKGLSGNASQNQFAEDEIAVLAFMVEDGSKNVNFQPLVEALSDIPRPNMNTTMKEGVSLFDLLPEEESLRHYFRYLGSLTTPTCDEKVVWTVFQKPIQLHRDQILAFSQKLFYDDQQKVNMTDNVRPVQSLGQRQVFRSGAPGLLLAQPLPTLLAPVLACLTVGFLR
Parameter: pKi
Value format note: pKi is -log10 of concentration (mol/L); just state the number.

Lookup: Form field: reported pKi of NS(=O)(=O)c1cccc2cccnc12
Found: 6.38

Lookup: Form field: reported pKi of NS(=O)(=O)c1cccc2ccccc12
Found: 6.36

Lookup: Form field: reported pKi of Nc1ccc(S(=O)(=O)Nc2ccc(S(N)(=O)=O)cc2)cc1
Found: 6.89

Lookup: Form field: reported pKi of NS(=O)(=O)c1ccc(C(=O)O)cc1 [CARZENIDE]
Found: 7.07

* * *

target: Carbonic anhydrase 9 (Homo sapiens, UniProt Q16790)
Binarize Ki at 0.02 µM; below is yes (1), at or above is no (0).

Lookup: Quick check: Ki of Cn1nc(S(N)(=O)=O)sc1=N under 0.02 µM?
Found: no (0)

Lookup: Quick check: Ki of Nc1nccc(Nc2ccc(S(N)(=O)=O)cc2)n1 under 0.02 µM?
Found: yes (1)

Lookup: Quick check: Ki of Nc1ccccc1S(N)(=O)=O under 0.02 µM?
Found: no (0)

Lookup: Quick check: Ki of NS(=O)(=O)c1ccc(CCO)cc1 under 0.02 µM?
Found: no (0)

Lookup: Quick check: Ki of NS(=O)(=O)c1ccc(C(=O)O)cc1 [CARZENIDE] under 0.02 µM?
Found: no (0)

Lookup: Quick check: Ki of Nc1ccc(S(=O)(=O)NCCc2ccc(S(N)(=O)=O)cc2)cc1 under 0.02 µM?
Found: no (0)
